tested on: SEM cells; test: cell viability relative to DMSO control; higher = less cytotoxic; settings: RPMI 5 mM glucose + 10% dialyzed FBS; 48 h; 46.1 µM
Field 'label' (enum: MET / NOT MET). Set to MET when cell viability is strictly under 90%; else NOT MET.

>>> assigned_label("COc1ccc(C2CNC(=O)C2)cc1OC1CCCC1 (stereo not given)")
"NOT MET"
>>> assigned_label("CC[C@H](C)[N]1C=C(C)C2=C1C=C(C=C2C(=O)NC\\C3=C(C)\\C=C(\\C)NC3=O)C4=CC=C(N=C4)N5CCNCC5")
"NOT MET"
>>> assigned_label("CCOC(=O)C/1=C(O)/C(=O)N(CC2=CC=CC=C2)C1")
"NOT MET"
>>> assigned_label("O=C1c2c(O)ccc(O)c2C(=O)c2c(NCCNCCO)ccc(NCCNCCO)c21")
"MET"
>>> assigned_label("S=C1N\\C=N/C2=C1[NH]C=N2")
"MET"
>>> assigned_label("CC1(C)O[C@@H]2C[C@H]3[C@@H]4CCC5=CC(=O)C=C[C@]5(C)[C@H]4[C@@H](O)C[C@]3(C)[C@]2(C(=O)CO)O1")
"MET"
>>> assigned_label("C=C[C@H]1CN2CC[C@H]1C[C@H]2[C@H](O)c1ccnc2ccc(OC)cc12")
"MET"
>>> assigned_label("O=C(O)c1ccc2c(c1)nc(Nc1cccc(Cl)c1)c1ccncc12")
"MET"

Query block: Here's an entry: C[C@]12CC[C@@H]3c4ccc(O)cc4C[C@@H](CCCCCCCCC[S+]([O-])CCCC(F)(F)C(F)(F)F)[C@H]3[C@@H]1CC[C@@H]2O (stereo not given in full) . Is its cell viability below 90%?
Result block: MET

Query block: Try this compound too: NC(=O)c1ccc(I)c([N+](=O)[O-])c1
Result block: NOT MET

Query block: Try this compound too: CN1C[C@H]2c3ccccc3Oc3ccc(Cl)cc3[C@@H]2C1
Result block: MET

From: the supplement of paper PMC11451515
